Test: Drug metabolism test (pharmacokinetics, oral, mice)
Format: in vivo, ICR mice
Settings: orally, 10 mg/kg, judgement on Table 6
Description: 18 healthy male ICR mice with a body weight of 18-22 g were administered drugs by intragastric administration, with an administration dose of 10 mg/kg and an administration volume of 10 mL/kg, respectively. […] When measured, the sample was treated through the method for treating the plasma sample, and the drug concentration in plasma was determined by LC-MS/MS and the pharmacokinetic parameters of the drug were calculated.
OBSERVATION TYPE: pharmacokinetic properties (in words)

O=[N+]([O-])c1cn2c(n1)OC[C@@H](NCc1ccc(N3CCC(Oc4ccc(OC(F)(F)F)cc4)CC3)nc1)C2	excellent
O=[N+]([O-])c1cn2c(n1)OC[C@@H](NCc1cnc(N3CCN(c4ccc(C(F)(F)F)cc4)CC3)nc1)C2	excellent
CC1CN(c2ccc(OC(F)(F)F)cc2)CCN1c1ncc(CN[C@@H]2COc3nc([N+](=O)[O-])cn3C2)cn1 (stereo partly shown)	excellent
N#CC1(c2ccc(OC(F)(F)F)cc2)CCN(c2ccc(CN[C@@H]3COc4nc([N+](=O)[O-])cn4C3)cn2)CC1	excellent

====

experiment: Drug metabolism test (pharmacokinetics, oral, mice); format: in vivo, ICR mice; settings: male, ICR, mouse, po, orally (intragastric), 10 mg/kg, plasma
OBSERVATION TYPE: MRT

See these solved cases before continuing.
O=[N+]([O-])c1cn2c(n1)OC[C@@H](NCc1cnc(N3CCN(c4ccc(OC(F)(F)F)cc4)CC3)nc1)C2 [Compound 18]	7.11 h
Cc1nc(N2CCN(c3ccc(OC(F)(F)F)cc3)CC2)ncc1CN[C@@H]1COc2nc([N+](=O)[O-])cn2C1 [Compound 36]	4.71 h
O=[N+]([O-])c1cn2c(n1)OC[C@@H](NCc1cnc(N3CCN(c4ccc(C(F)(F)F)cc4)CC3)nc1)C2 [Compound 31]	4.18 h

Prompt line: Give the measured MRT of N#CC1(c2ccc(OC(F)(F)F)cc2)CCN(c2ccc(CN[C@@H]3COc4nc([N+](=O)[O-])cn4C3)cn2)CC1 [Compound 10] .
Response line: 4.68 h

====

test: physchem; format: physicochemical; details: pH 1.2, simulated gastric fluid, thermodynamic from solid, Solubility
Quick reference for solubility at 3 days among some compounds

O=[N+]([O-])c1cn2c(n1)OC[C@@H](NCc1ccc(N3CCN(c4ccc(OC(F)(F)F)cc4)CC3)nc1)C2	> 1000 µg/mL
CC1CN(c2ccc(OC(F)(F)F)cc2)CCN1c1ncc(CN[C@@H]2COc3nc([N+](=O)[O-])cn3C2)cn1 (stereo partly drawn)	> 1000 µg/mL

Moving on to another compound below.
Prompt line: Entry under review: O=[N+]([O-])c1cn2c(n1)OC[C@@H](NCc1cnc(N3CCN(c4ccc(C(F)(F)F)cc4)CC3)nc1)C2 . Reported solubility at 3 days?
Response line: > 1000 µg/mL
